Target: T1, CD28-Fc (Homo sapiens, UniProt P10747)
T1 construct: Fc
Assay: Biacore multi-cycle kinetics on immobilized CD28-Fc
Type: binding
Conditions: Table 3, monomeric VHH clones, affinity constants to CD28-Fc
Lab note: compare ka with 50000 M⁻¹ s⁻¹, writing true if less and false if equal or more.

Previously resolved entries follow.
molecule	assignedCategory
VHH 11E11 (VHH) VHH: EVQLVESGGGLVQAGESLRLSCAASGSIASINSMAWYRQAPGSQRELVAAISNAREVYYADSVKGRFTISRDNAKTTVYLQMNSLRPEDTAVYYCVVDVYFQEYWYWGQGTQVTVSS	true
VHH 11G11 (VHH) VHH: EVQLVESGGGLVQAGESLRLSCAASGSIASINTMAWYRQAPGSQRELVAAINSISRTYYADSVKGRFTISRDNAKTTVYLQMNSLRPEDTAVYYCVVDVTKEDYWYWGQGTQVTVSS	true

A record lists VHH 5A3 (VHH, also called 5A03) VHH: EVQLVESGGGLVQAGESLRLSCAASGSIASINSMGWYRQAPGSQRELVAAINEKLLIYYADSVKGRFTISRDNAKTTVYLQMNSLRPEDTAVYYCVVDLYGSDYWDWGQGTQVTVSS . Is its ka below 50000 M⁻¹ s⁻¹?
true
